Origin of measurements: patent US10155750B2

tested on: hOX1R (orexin-1 receptor) (Homo sapiens, UniProt O43613)
assay notes: FLIPR Ca2+ flux assay, hOX1R
condition summary: CHO cells expressing the receptor; agonist 70 pM Ala-6,12 human orexin-A
pIC50: −log10 of the molar value.
Measured pIC50 accompanies every entry in the list below.

For this molecule ( CCN(CCn1ncc(C(C)(C)O)n1)C(=O)c1ccccc1N1CCCC1 ), measured pIC50 is < 5.00

Measured pIC50, CCN(CCn1nc(C)c(C(C)(C)O)n1)C(=O)c1nccnc1-c1ccccn1 : < 5.00

Value of measured pIC50 for the entry CCN(CCn1ncc(C(C)O)n1)C(=O)c1ccccc1-n1nccn1 (stereo not drawn) : < 5.00

* * *

tested on: hOX1R (orexin-1 receptor) (Homo sapiens)
assay notes: FLIPR Ca2+ flux assay, hOX1R
condition summary: CHO cells expressing the receptor; agonist 70 pM Ala-6,12 human orexin-A
pIC50 listing for selected compounds.
Quick note: pIC50 values are minus log10 of concentrations in mol/L.

CCN(CCn1nc(C)c(C(C)(C)O)n1)C(=O)c1ccccc1N1CCCC1 [Example 41]: 5.68

# evaluate next
pIC50 for hOX1R (orexin-1 receptor) (Homo sapiens) with input CCN(CCn1nc(C)c(C(C)(C)O)n1)C(=O)c1ccccc1C1CC1(F)F (centres unmarked) [Example 38] equals 5.83

* * *

Listing of recorded IC50 by entry.
tested on: hOX1R (orexin-1 receptor) (Homo sapiens, UniProt O43613)
assay notes: FLIPR Ca2+ flux assay, hOX1R
condition summary: CHO cells expressing the receptor; agonist 70 pM Ala-6,12 human orexin-A

CCN(CCn1nc(C)c(C(C)(C)O)n1)C(=O)c1ccccc1-n1cccn1: > 10 µM
CCN(CCn1nc(C)c(C(C)(C)O)n1)C(=O)c1cccnc1OCC(F)(F)F: > 10 µM
CCN(CCn1ncc(C(C)(C)O)n1)C(=O)c1ccccc1OC(F)(F)F: > 10 µM
CCN(CCn1nc(C)c(C(C)(C)O)n1)C(=O)c1ccccc1CC(F)F: > 10 µM

// next entry
Tested system hOX1R (orexin-1 receptor) (Homo sapiens, UniProt O43613); IC50 recorded for CCN(CCn1nc(C)c(C(C)(C)O)n1)C(=O)c1cccnc1OCC(F)F was > 10 µM

* * *

pIC50 values by entry
tested on: hOX1R (orexin-1 receptor) (Homo sapiens)
assay notes: FLIPR Ca2+ flux assay, hOX1R
condition summary: CHO cells expressing the receptor; agonist 70 pM Ala-6,12 human orexin-A
pIC50: −log10 of the molar value.

The value of pIC50 recorded for CCN(CCn1nc(C)c(C(C)(C)O)n1)C(=O)c1ncccc1-c1ccccc1 when tested on hOX1R (orexin-1 receptor) (Homo sapiens) reads < 5.00

Record CCN(CCn1nc(C)c(C(C)(C)O)n1)C(=O)c1ccccc1OC(F)F has hOX1R (orexin-1 receptor) (Homo sapiens) pIC50 equal to < 5.00

Field pIC50 (system: hOX1R (orexin-1 receptor) (Homo sapiens)) for entry CCN(CCn1ncc(C(C)(C)O)n1)C(=O)c1ccccc1OC(C)C = < 5.00

* * *

tested on: human orexin-2 receptor (Homo sapiens (Human))
Sequence (O43614 whole entry): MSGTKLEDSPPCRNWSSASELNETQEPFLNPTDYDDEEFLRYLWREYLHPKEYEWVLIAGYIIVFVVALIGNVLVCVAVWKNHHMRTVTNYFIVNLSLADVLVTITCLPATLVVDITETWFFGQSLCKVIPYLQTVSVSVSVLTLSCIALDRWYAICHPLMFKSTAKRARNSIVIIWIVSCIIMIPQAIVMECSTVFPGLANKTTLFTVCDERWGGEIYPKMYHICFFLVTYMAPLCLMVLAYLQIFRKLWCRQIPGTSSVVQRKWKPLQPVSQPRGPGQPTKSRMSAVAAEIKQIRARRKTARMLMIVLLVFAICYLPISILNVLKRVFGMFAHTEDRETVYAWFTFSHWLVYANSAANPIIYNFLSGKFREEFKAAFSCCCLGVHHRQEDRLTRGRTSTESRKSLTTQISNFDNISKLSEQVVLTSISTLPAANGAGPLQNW
assay notes: FLIPR Ca2+ flux assay, hOX2R
condition summary: CHO cells expressing the receptor; agonist 70 pM Ala-6,12 human orexin-A
Bucketed by reported IC50, buckets being lower segment = under 30 nM, middle segment = from 30 nM up to 50 nM, upper segment = 50 nM and over

Known results for compounds:
CCN(CCn1nc(C)c(C(C)(C)O)n1)C(=O)c1ccccc1N1CCCC1: lower segment
CCN(CCn1nc(C)c(C(C)(C)O)n1)C(=O)c1ncccc1-n1nccn1: upper segment
CCOc1ncccc1C(=O)N(CC)CCn1nc(C)c(C(C)(C)O)n1: upper segment
CCN(CCn1nc(C)c(C(C)(C)O)n1)C(=O)c1ccccc1-n1cccn1: lower segment
CCN(CCn1nc(C)c(C(C)(C)O)n1)C(=O)c1ccccc1CC(F)F: lower segment
CCN(CCn1ncc(C(C)(C)O)n1)C(=O)c1ccccc1OC(C)C: upper segment

Exam item: Returns: class label. Input: CCN(CCn1nc(C)c(C(C)(C)O)n1)C(=O)c1cccnc1OCC(F)F
Marked response: middle segment

Exam item: Could you place CCN(CCn1ncc(C(C)(C)O)n1)C(=O)c1ccccc1N1CCCC1 in its proper category? Many thanks.
Marked response: middle segment

Exam item: Any idea which band CCN(CCn1cc(C(C)(C)O)cn1)C(=O)c1ccccc1-n1nccn1 is in?
Marked response: middle segment

Exam item: State the band of CCN(CCn1nc(C)c(C(C)(C)O)n1)C(=O)c1ncccc1-c1ccccc1
Marked response: upper segment

Exam item: Into which bin does this compound go? CCN(CCn1nc(C)c(C(C)(C)O)n1)C(=O)c1ccccc1OC(F)(F)F
Marked response: lower segment

* * *

Listed next: entries and their corresponding pIC50.
tested on: hOX1R (orexin-1 receptor) (Homo sapiens)
assay notes: FLIPR Ca2+ flux assay, hOX1R
condition summary: CHO cells expressing the receptor; agonist 70 pM Ala-6,12 human orexin-A
pIC50: −log10 of the molar value.

Some entries whose results are on file:
CCOc1ncccc1C(=O)N(CC)CCn1nc(C)c(C(C)(C)O)n1: < 5.00
CCCc1ccccc1C(=O)N(CC)CCn1nc(C)c(C(C)(C)O)n1: 5.66
CCN(CCn1nc(C)c(C(C)(C)O)n1)C(=O)c1ccccc1CC(F)(F)F: < 5.00
CCN(CCn1nc(C)c(C(C)(C)O)n1)C(=O)c1ccccc1OCC(F)(F)F: < 5.00

For this molecule ( CCN(CCn1nc(C)c(C(C)(C)O)n1)C(=O)c1cccnc1OC(C)C ), measured pIC50 is < 5.00

pIC50 reported for this molecule CCN(CCn1nc(C)c(C(C)(C)O)n1)C(=O)c1ccccc1-n1nccn1 : 5.54

// recorded pIC50 for CCN(CCn1ncc(C(C)(C)O)n1)C(=O)c1ccccc1C1CC1 : < 5.00

Notebook: CCN(CCn1nc(C)c(C(C)(C)O)n1)C(=O)c1cccnc1-c1ccccc1 , pIC50 read as < 5.00

pIC50 recorded for this molecule, CCN(CCn1nc(C)c(C(C)(C)O)n1)C(=O)c1ccc(F)cc1-n1nccn1 , is 5.26

Memo: CCN(CCn1ncc(C(C)(C)O)n1)C(=O)c1ccccc1-n1nccn1 , reported pIC50: < 5.00

* * *

tested on: hOX1R (orexin-1 receptor) (Homo sapiens, UniProt O43613)
assay notes: FLIPR Ca2+ flux assay, hOX1R
condition summary: CHO cells expressing the receptor; agonist 70 pM Ala-6,12 human orexin-A
experimental endpoint: pIC50
Notebook: values listed as pIC50 are -log10 of the concentration (mol/L).

Answered examples (2):
CCN(CCn1nc(C)c(C(C)(C)O)n1)C(=O)c1ccccc1C1CCC1: 5.93
CCN(CCn1nc(C)c(C(C)(C)O)n1)C(=O)c1ccccc1C1CC1: 5.81

The value of pIC50 measured for the compound CCN(CCn1nc(C)c(C(C)(C)O)n1)C(=O)c1ccc(OC)nc1C1CC1 turned out to be 5.55

* * *

tested on: hOX1R (orexin-1 receptor) (Homo sapiens, UniProt O43613)
assay notes: FLIPR Ca2+ flux assay, hOX1R
condition summary: CHO cells expressing the receptor; agonist 70 pM Ala-6,12 human orexin-A
experimental endpoint: IC50

Previously resolved entries follow.
CCN(CCn1nc(C)c(C(C)(C)O)n1)C(=O)c1ccccc1OC(F)(F)F [Example 26]: > 10 µM
CCN(CCn1ncc(C(C)(O)CC)n1)C(=O)c1ccccc1-n1nccn1 (stereo not drawn) [Example 2]: > 10 µM

Next compound, please.
Entry CCN(CCn1nc(C)c(C(C)(C)O)n1)C(=O)c1ccccc1OCC(F)F [Example 35] : IC50 on hOX1R (orexin-1 receptor) (Homo sapiens, UniProt O43613) = > 10 µM

* * *

tested on: hOX1R (orexin-1 receptor) (Homo sapiens, UniProt O43613)
assay notes: FLIPR Ca2+ flux assay, hOX1R
condition summary: CHO cells expressing the receptor; agonist 70 pM Ala-6,12 human orexin-A
experimental endpoint: IC50

Guide cases for IC50, answers given:
CCN(CCn1ncc(C(C)(C)O)n1)C(=O)c1ccccc1SC(F)(F)F [Example 11]: > 10 µM
CCN(CCn1cc(C(C)(C)O)cn1)C(=O)c1ccccc1-n1nccn1 [Example 49]: > 10 µM

Sure, the documented IC50 for CCN(CCn1nc(C)c(C(C)(C)O)n1)C(=O)c1cccnc1-n1cccn1 [Example 48] is 7.52 µM

The reported value for CCN(CCn1nc(C)c(C(C)(C)O)n1)C(=O)c1nccnc1-n1cccn1 [Example 47] in terms of IC50 is > 10 µM

Given item CCN(CCn1ccc(C(C)(C)O)n1)C(=O)c1ccccc1-n1nccn1 [Example 50] , the value recorded as its IC50 is > 10 µM

Per the record, CCOc1ccccc1C(=O)N(CC)CCn1nc(C)c(C(C)(C)O)n1 [Example 27] has IC50 of > 10 µM
